Test system: Brassica rapa subsp. oleifera
Test: Herbicidal activity against Brassica rapa subsp. oleifera assessed as inhibition of root growth at 10 ug/ml at 28 +/- 1 degC measured after 65 hr by root test
Assay type: functional
Could you label it 1 if measured inhibition at 10 µg/mL is 8% or higher, and 0 otherwise?

compoundsmiles=COc1ccc(/C(O)=C2\C(=O)CN(C(C)C)C2=O)cc1 measuredon="Brassica rapa subsp. oleifera" assignedclass=1
compoundsmiles=COc1ccc(/C(O)=C2\C(=O)CN(C3CC3)C2=O)c(OC)c1 measuredon="Brassica rapa subsp. oleifera" assignedclass=1
compoundsmiles=COc1ccc(/C(O)=C2\C(=O)CN(C(C)(C)C)C2=O)cc1 measuredon="Brassica rapa subsp. oleifera" assignedclass=0
compoundsmiles=COCCOCOc1ccccc1/C(O)=C1\C(=O)CN(C(C)C)C1=O measuredon="Brassica rapa subsp. oleifera" assignedclass=0

Continue with the next molecule.
[Q] Dear colleague, could you confirm whether CC(C)c1ccc(/C(O)=C2\C(=O)CN(C(C)(C)C)C2=O)cc1 has inhibition at 10 µg/mL at or above 8%?
[A] 1
